Data origin, for the record: patent US20070197599A1

Assay: Single-dose 10-minute intravenous infusion toxicokinetics in Sprague-Dawley rats
Assay type: in vivo
Conditions: both sexes, Sprague-Dawley, rat, plasma; 200 mg/kg, 10-minute iv infusion; read-out: Tmax of Compound 1
Property Label: Tmax (min)
Form entry: value (min) — number only.

# input Which Tmax value belongs to `CC1(C)CC(OC(=O)C2CC2)CC(C)(C)N1O.Cl` ?
# output 10

---

Assay: Single-dose 10-minute intravenous infusion toxicokinetics in Sprague-Dawley rats
Assay type: in vivo
Conditions: both sexes, Sprague-Dawley, rat, plasma; 200 mg/kg iv infusion, 0.167 hr from start of infusion; read-out: Plasma concentration of Compound 1
Property Label: concentration at 0.167 hr (µg/mL)
Value expressed in µg/mL; do not type the unit.

# input Could you tell me which concentration at 0.167 hr is on file for CC1(C)CC(OC(=O)C2CC2)CC(C)(C)N1O.Cl [Compound 1, hydrochloride] ?
# output 89.7

---

Assay: Single-dose 10-minute intravenous infusion toxicokinetics in Sprague-Dawley rats
Format: in vivo
Conditions: both sexes, Sprague-Dawley, rat, in vivo; 100 mg/kg, 10-minute iv infusion; read-out: Cmax of Compound 1
Property Label: Cmax (ng/mL)
Write the answer as a number in ng/mL, unit excluded.

# input If you can, please state the reported Cmax value of CC1(C)CC(OC(=O)C2CC2)CC(C)(C)N1O.Cl [Compound 1] .
# output 29000

---

Assay: In vitro stability of Compound 1 in human plasma
Format: in vitro ADME
Settings: human, pooled human plasma, in vitro, 37° C., read-out: T½
Property Label: half-life at 1000 ng/mL (min)
Write it as a number; the unit min goes unstated.

# input For `CC1(C)CC(OC(=O)C2CC2)CC(C)(C)N1O.Cl` , what is its reported half-life at 1000 ng/mL?
# output 27.8

---

Assay: Single-dose 10-minute intravenous infusion toxicokinetics in Sprague-Dawley rats
Type: in vivo
Conditions: both sexes, Sprague-Dawley, rat, plasma; 100 mg/kg, 10-minute iv infusion; read-out: Tmax of Compound 1
Property Label: Tmax (min)
Please respond with the number in min and leave the unit unwritten.

# input Item `CC1(C)CC(OC(=O)C2CC2)CC(C)(C)N1O.Cl` has what recorded Tmax?
# output 10

---

Test: Single-dose 10-minute intravenous infusion toxicokinetics in Sprague-Dawley rats
Type: in vivo
Details: both sexes, Sprague-Dawley, rat, plasma; 100 mg/kg iv infusion, 4.167 hr; below 50 ng/mL assigned zero; read-out: Plasma concentration of Compound 1
Property Label: concentration at 4.167 hr (ng/mL)
Answer with a number only, understood to be in ng/mL.

# input Requested read-out: concentration at 4.167 hr. Entry: CC1(C)CC(OC(=O)C2CC2)CC(C)(C)N1O.Cl [Compound 1, hydrochloride]
# output 0

---

Test: Single-dose 10-minute intravenous infusion toxicokinetics in Sprague-Dawley rats
Assay type: in vivo
Conditions: both sexes, Sprague-Dawley, rat, plasma; 10 mg/kg iv infusion, 0.167 hr from start of infusion; read-out: Plasma concentration of Compound 1
Property Label: concentration at 0.167 hr (ng/mL)
Could you give me the number in ng/mL? Just the number is fine.

# input concentration at 0.167 hr for CC1(C)CC(OC(=O)C2CC2)CC(C)(C)N1O.Cl [Compound 1, hydrochloride] ?
# output 980

---

Test: Single-dose 10-minute intravenous infusion toxicokinetics in Sprague-Dawley rats
Format: in vivo
Conditions: both sexes, Sprague-Dawley, rat, plasma; 200 mg/kg iv infusion, 4.167 hr; below 50 ng/mL assigned zero; read-out: Plasma concentration of Compound 1
Property Label: concentration at 4.167 hr (ng/mL)
Your answer is read as ng/mL, so omit the unit and give the number.

# input Fill in: concentration at 4.167 hr of CC1(C)CC(OC(=O)C2CC2)CC(C)(C)N1O.Cl [Compound 1, hydrochloride] is ___
# output 0

---

Test: Single-dose 10-minute intravenous infusion toxicokinetics in Sprague-Dawley rats
Format: in vivo
Settings: both sexes, Sprague-Dawley, rat, in vivo; 10 mg/kg, 10-minute iv infusion; read-out: Cmax of Compound 1
Property Label: Cmax (ng/mL)
Numbers only; they are read as ng/mL.

# input Fill in: Cmax of CC1(C)CC(OC(=O)C2CC2)CC(C)(C)N1O.Cl [Compound 1] is ___
# output 980

---

Experiment: Single-dose 10-minute intravenous infusion toxicokinetics in Sprague-Dawley rats
Format: in vivo
Settings: both sexes, Sprague-Dawley, rat, plasma; 100 mg/kg iv infusion, 0.167 hr from start of infusion; read-out: Plasma concentration of Compound 1
Experimental: Blood for toxicokinetic evaluations was collected at pre-determined time points during and after the infusion. All pharmacokinetic analyses were performed using Kinetica®, version 4.2 (Innaphase, Philadelphia, Pa.). Cmax is the observed maximum plasma concentration Tmax is the time Cmax is reached T1/2 is the elimination half-life The plasma concentrations were rounded to the nearest tenth of a ng/mL before the calculations. […] Nominal time points were used for all calculations.
Property Label: concentration at 0.167 hr (ng/mL)
Answer in ng/mL, number only, no unit symbol.

# input Quick one: concentration at 0.167 hr for CC1(C)CC(OC(=O)C2CC2)CC(C)(C)N1O.Cl [Compound 1, hydrochloride] ?
# output 29000

---

Assay: In vitro stability of Compound 1 in human plasma
Type: in vitro ADME
Settings: human, pooled human plasma, average, read-out: in vitro half-life
Property Label: half-life at 1000 ng/mL (min)
Provide only the numeric value, understood in min.

# input Consider the molecule shown here: CC1(C)CC(OC(=O)C2CC2)CC(C)(C)N1O.Cl [Compound 1] What is its recorded half-life at 1000 ng/mL?
# output 28

---

Experiment: In vitro stability of Compound 1 in rabbit plasma
Type: in vitro ADME
Conditions: rabbit, pooled rabbit plasma, average, read-out: in vitro half-life
Property Label: half-life at 1000 ng/mL (min)
Number in min, nothing else.

# input Could you share which half-life at 1000 ng/mL value was measured for `CC1(C)CC(OC(=O)C2CC2)CC(C)(C)N1O.Cl` ?
# output 1

---

Assay: Single-dose 10-minute intravenous infusion toxicokinetics in Sprague-Dawley rats
Type: in vivo
Conditions: both sexes, Sprague-Dawley, rat, plasma; 30 mg/kg iv infusion, 4.167 hr; below 50 ng/mL assigned zero; read-out: Plasma concentration of Compound 1
Property Label: concentration at 4.167 hr (ng/mL)
Respond numerically; units are ng/mL and should not be typed.

# input Find the recorded concentration at 4.167 hr belonging to CC1(C)CC(OC(=O)C2CC2)CC(C)(C)N1O.Cl [Compound 1, hydrochloride] and report it.
# output 0

---

Test: In vitro stability of Compound 1 in rat plasma
Format: in vitro ADME
Conditions: rat, pooled rat plasma, in vitro, 37° C., read-out: T½
Property Label: half-life at 1000 ng/mL (min)
All answers are understood in min, so give the number only.

# input Name the reported half-life at 1000 ng/mL value associated with the molecule `CC1(C)CC(OC(=O)C2CC2)CC(C)(C)N1O.Cl`
# output 69.5

---

Test: Single-dose 10-minute intravenous infusion toxicokinetics in Sprague-Dawley rats
Assay type: in vivo
Conditions: both sexes, Sprague-Dawley, rat, in vivo; 200 mg/kg, 10-minute iv infusion; read-out: Cmax of Compound 1
Property Label: Cmax (µg/mL)
Write it as a number; the unit µg/mL goes unstated.

# input Any idea what its Cmax is? The compound is `CC1(C)CC(OC(=O)C2CC2)CC(C)(C)N1O.Cl`
# output 89.7

---

Experiment: In vitro stability of Compound 1 in dog plasma
Format: in vitro ADME
Conditions: dog, pooled dog plasma, in vitro, 37° C., read-out: T½
Property Label: half-life at 1000 ng/mL (h)
The reply should be a number in h, with the unit left off.

# input Return reported half-life at 1000 ng/mL; argument: `CC1(C)CC(OC(=O)C2CC2)CC(C)(C)N1O.Cl`
# output 3.99

---

Experiment: Single-dose 10-minute intravenous infusion toxicokinetics in Sprague-Dawley rats
Format: in vivo
Conditions: both sexes, Sprague-Dawley, rat, plasma; 30 mg/kg iv infusion, 0.167 hr from start of infusion; read-out: Plasma concentration of Compound 1
Property Label: concentration at 0.167 hr (ng/mL)
Respond with the bare value in ng/mL.

# input Recorded concentration at 0.167 hr of CC1(C)CC(OC(=O)C2CC2)CC(C)(C)N1O.Cl [Compound 1, hydrochloride] , please.
# output 3490
